Ref: patent US12691114B2

- System: GCV-resistant HCMV Towne (C607Y mutation in UL97)
- test name: microbe, parasite or virus in culture
- Type: cell-based, human cytomegalovirus
- experimental conditions: pp28 GCV-resistant Towne, luciferase, 72 hpi; read-out: EC50—GCVR Towne
pEC50: −log10 of the molar value.
recorded metric: pEC50

Nc1c(S(=O)(=O)c2cccs2)c2nc3ccccc3nc2n1Cc1ccccc1 [MLS8091] :: 6.59
CCc1ccc(NC(=O)[C@H](Cc2c[nH]c3ccccc23)NC(=O)[C@@H]2Cc3ccccc3CN2)cc1 [MLS8554] :: 6.77
